Here, each record is paired with measured log KML data.
# assayDetails: Stability and protonation constants and pMn of the Mn(II) complexes (pH-potentiometry and/or 1H relaxometry)
# Assay type: physicochemical
# conditionSummary: stability constant of the Mn(II) complex; I = 0.15 M NaCl, 25 °C

Answered examples (2):
Ask | Consider the compound O=C(O)CN1CCOCCN(CC(=O)O)CCN(CC(=O)O)CC1 and give its recorded log KML.
Reply | 13.88 (1)

Ask | Consider the compound NC(=O)CN1CCN(CC(N)=O)CCN(CC(N)=O)CCN(CC(N)=O)CC1 and give its recorded log KML.
Reply | 11.96 (1)

Please find the next compound below.
Ask | Consider the compound O=C(CN1CCN(CC(=O)N2CCCCC2)Cc2cccc(n2)CN(CC(=O)N2CCCCC2)CC1)N1CCCCC1 and give its recorded log KML.
Reply | 14.05 (2)
